Origin of values: patent US12577234B2

# target.of.assay: human mAChR M4 (Homo sapiens, UniProt P08173)
# Construct: expressed in transfected cells; host or cells: CHO-K1 (ATCC), stably co-expressing chimeric G protein Gqi5
# assay.info: mAChR M4 cell-based functional assay (calcium mobilization, EC80 acetylcholine), human M4
# condition.parameters: Table 10; M4/Gqi5/CHO-K1 cells, decrease of EC80 acetylcholine response
pIC50: −log10 of the molar value.
value.type: pIC50

Known results for compounds:
{"test.smiles": "Fc1ccc(-c2ccc(N[C@H]3C[C@@H]4CN(CC5CCOCC5)C[C@@H]4C3)nn2)cc1", "pIC50": 8.34}
{"test.smiles": "c1cn2cc(-c3ccc(N[C@H]4C[C@@H]5CN(CC6CCOCC6)C[C@@H]5C4)nn3)ccc2n1", "pIC50": 8.97}
{"test.smiles": "F[C@@H]1CCN(c2ccc(N[C@H]3C[C@@H]4CN(CC5CCOCC5)C[C@@H]4C3)nn2)C1", "pIC50": 7.90}
{"test.smiles": "Cc1cnn(C)c1-c1ccc(O[C@H]2C[C@@H]3CN(CCC(C)(C)C)C[C@@H]3C2)nn1", "pIC50": 6.54}
{"test.smiles": "Cc1nn(C)cc1-c1cnc(N[C@H]2C[C@@H]3CN(CCC(C)(C)C)C[C@@H]3C2)cn1", "pIC50": 6.91}
{"test.smiles": "Fc1ccccc1-c1ccc(N[C@H]2C[C@@H]3CN(CC4CCOCC4)C[C@@H]3C2)nn1", "pIC50": 9.18}
{"test.smiles": "Cc1noc(C)c1-c1ccc(O[C@H]2C[C@@H]3CN(CCC(C)(C)C)C[C@@H]3C2)nn1", "pIC50": 6.76}
{"test.smiles": "Clc1ccccc1-c1ccc(N[C@H]2C[C@@H]3CN(CC4CCOCC4)C[C@@H]3C2)nn1", "pIC50": 9.44}
{"test.smiles": "N#Cc1ccc(F)cc1-c1ccc(N[C@H]2C[C@@H]3CN(CC4CCOCC4)C[C@@H]3C2)nn1", "pIC50": 7.93}
{"test.smiles": "Cc1ccc(-c2ccc(N[C@H]3C[C@@H]4CN(CC5CCOCC5)C[C@@H]4C3)nn2)cc1", "pIC50": 8.40}

[P] Cc1nn(C)cc1-c1ccc(O[C@H]2C[C@@H]3CN(CCC(C)(C)C)C[C@@H]3C2)nn1
[Q] CC(C)CN1C[C@H]2C[C@H](Nc3ccc(-c4cc(F)ccc4Cl)nn3)C[C@H]2C1
[R] COc1ccc(F)cc1-c1ccc(N[C@H]2C[C@@H]3CN(CC4CCOCC4)C[C@@H]3C2)nn1
Query string: Please produce an ascending ranking of these compounds based on pIC50. Response format: the labels, sorted as the prompt asks.
Result string: P, Q, R

====

# target.of.assay: human mAChR M4 (Homo sapiens)
# Construct: expressed in transfected cells; host or cells: CHO-K1 (ATCC), stably co-expressing chimeric G protein Gqi5
# Sequence (P08173 1-479): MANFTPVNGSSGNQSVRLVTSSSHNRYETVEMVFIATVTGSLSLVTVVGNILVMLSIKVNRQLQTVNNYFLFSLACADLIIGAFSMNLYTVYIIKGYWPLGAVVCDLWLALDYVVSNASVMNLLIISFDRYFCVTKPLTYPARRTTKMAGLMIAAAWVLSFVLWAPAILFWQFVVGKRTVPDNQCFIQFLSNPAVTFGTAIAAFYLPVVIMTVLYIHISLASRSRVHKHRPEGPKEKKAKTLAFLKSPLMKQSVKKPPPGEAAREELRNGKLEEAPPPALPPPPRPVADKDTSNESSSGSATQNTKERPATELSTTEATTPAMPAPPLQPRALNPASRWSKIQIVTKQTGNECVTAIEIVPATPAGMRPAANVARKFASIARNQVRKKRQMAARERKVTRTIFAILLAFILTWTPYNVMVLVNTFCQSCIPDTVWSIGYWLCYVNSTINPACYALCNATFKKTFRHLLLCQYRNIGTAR
# assay.info: mAChR M4 cell-based functional assay (calcium mobilization, EC80 acetylcholine), human M4
# condition.parameters: Table 9; M4/Gqi5/CHO-K1 cells, decrease of EC80 acetylcholine response
# Procedure: Human or rat M4 cDNA, along with the chimeric G protein Gqi5, were transfected into Chinese hamster ovary (CHO-K1) cells purchased from the American Type Culture Collection using Lipofectamine2000. […] Calcium flux was measured using the Functional Drug Screening System (FDSS) 6000 or 7000 (Hamamatsu Corporation, Tokyo, Japan) as an increase in the fluorescent static ratio. […] Agonist activity was analyzed as a concentration-dependent increase in calcium mobilization upon compound addition. […]
pIC50: −log10 of the molar value.
value.type: pIC50

{"compound": "Cc1nn(C)cc1-c1ccc(N[C@H]2C[C@@H]3CN(CC45CC6CC(CC(C6)C4)C5)C[C@@H]3C2)nn1", "numeric.value": 7.59}
{"compound": "CC(=O)Nc1ccc(-c2ccc(N[C@@H]3C[C@@H]4CN(CCC(C)(C)C)C[C@@H]4C3)nn2)cc1", "numeric.value": 5.08}
{"compound": "CCCC(C)CN1C[C@H]2C[C@H](Nc3ccc(-c4c(C)cnn4C)nn3)C[C@H]2C1 (some centres unmarked)", "numeric.value": 8.00}

[P] Cc1cnn(C)c1-c1ccc(NCCC2C[C@@H]3CN(Cc4ccccc4)C[C@@H]3C2)nn1 (some centres unmarked)
[Q] Cc1cnn(C)c1-c1ccc(N[C@H]2C[C@@H]3CN(CC4CCCCC4)C[C@@H]3C2)nn1
Query string: # argmax over pIC50 for candidates P and Q Indicate which entry you chose by stating its label.
Result string: Q

[1] Fc1ccc(Cl)c(-c2ccc(NC[C@H]3C[C@@H]4CN(CC5CC6C=CC5C6)C[C@@H]4C3)nn2)c1 (some centres unmarked)
[2] Fc1ccc(Cl)c(-c2ccc(OCC3C[C@@H]4CN(Cc5ccccn5)C[C@@H]4C3)nn2)c1 (some centres unmarked)
Query string: Identify the item whose pIC50 is the smaller number: 1 or 2 Indicate which entry you chose by stating its label.
Result string: 2

[1] Fc1ccc(Cl)c(-c2ccc(N[C@H]3C[C@@H]4CN(CC56CC7CC(CC(C7)C5)C6)C[C@@H]4C3)nn2)c1
[2] Cc1nn(C)cc1-c1ccc(N[C@H]2C[C@@H]3CN(Cc4ccccc4)C[C@@H]3C2)nn1
[3] Cc1nn(C)cc1-c1ccc(OCC2C[C@@H]3CN(Cc4ccccn4)C[C@@H]3C2)nn1 (some centres unmarked)
Query string: Please produce an ascending ranking of these compounds based on pIC50. Response format: the labels, sorted as the prompt asks.
Result string: 3, 1, 2
